Target: kinases of Table 5 (Homo sapiens)
Test: Further analysis of a plurality of inhibitors and a plurality of kinases (Table 5 inhibition results)
Type: biochemical
Design: scale not given here
Conditions: kinase PAK3; inhibitor 100 uM
readout name: Inhibition level

Problem: Output measured Inhibition level for this item: O=c1c(-c2ccc(O)cc2)coc2cc(O)cc(O)c12 [Genistein]
Solution: 2

Problem: Output measured Inhibition level for this item: CC(C)(C)n1nc(-c2ccc(Cl)cc2)c2c(N)ncnc21 [PP2]
Solution: 2

Problem: Output measured Inhibition level for this item: COc1cc2ncnc(Nc3cccc(Cl)c3)c2cc1OC [AG 1478]
Solution: 2

Problem: Output measured Inhibition level for this item: N#C/C(=C/c1ccc(O)c(O)c1)C(=O)NCc1ccccc1 [AG 490]
Solution: 1

Problem: Output measured Inhibition level for this item: Cn1cc(C2=C(c3cn(CCCSC(=N)N)c4ccccc34)C(=O)NC2=O)c2ccccc21 [Ro-31-8220]
Solution: 2

* * *

Target: kinases of Table 5 (Homo sapiens)
Experiment: Further analysis of a plurality of inhibitors and a plurality of kinases (Table 5 inhibition results)
Assay type: biochemical
Design: scale not given here
Conditions: kinase CDKL3; inhibitor 100 uM
Source text: The wash solution is then discarded.
readout name: Inhibition level

Here are 3 molecules together with their reported answers.
Problem: Output measured Inhibition level for this item: COc1cc2ncnc(Nc3cccc(Cl)c3)c2cc1OC [AG 1478]
Solution: 1

Problem: Output measured Inhibition level for this item: N#C/C(=C/c1ccc(O)c(O)c1)C(=O)NCc1ccccc1 [AG 490]
Solution: 2

Problem: Output measured Inhibition level for this item: Cn1cc(C2=C(c3cn(CCCSC(=N)N)c4ccccc34)C(=O)NC2=O)c2ccccc21 [Ro-31-8220]
Solution: 2

(A) O=c1c(-c2ccc(O)cc2)coc2cc(O)cc(O)c12 [Genistein]
(B) CC(C)(C)n1nc(-c2ccc(Cl)cc2)c2c(N)ncnc21 [PP2]
Problem: Determine, for A and B , which has the greater value of Inhibition level. Kindly give the label for the entry you pick.
Solution: B
(B: 2, A: 0)

* * *

Molecular target: kinases of Table 5 (Homo sapiens)
Assay: Further analysis of a plurality of inhibitors and a plurality of kinases (Table 5 inhibition results)
Format: biochemical
Set-up: scale not given here
Conditions: kinase RET; inhibitor 100 uM
readout name: Inhibition level

Here are 3 molecules together with their reported answers.
Problem: Output measured Inhibition level for this item: "N#C/C(=C/c1ccc(O)c(O)c1)C(=O)NCc1ccccc1"
Solution: 2

Problem: Output measured Inhibition level for this item: "COc1cc2ncnc(Nc3cccc(Cl)c3)c2cc1OC"
Solution: 2

Problem: Output measured Inhibition level for this item: "O=c1c(-c2ccc(O)cc2)coc2cc(O)cc(O)c12"
Solution: 2

(1) CC(C)(C)n1nc(-c2ccc(Cl)cc2)c2c(N)ncnc21
(2) Cn1cc(C2=C(c3cn(CCCSC(=N)N)c4ccccc34)C(=O)NC2=O)c2ccccc21
Problem: Determine, for 1 and 2 , which has the greater value of Inhibition level. Kindly give the label for the entry you pick.
Solution: 1

* * *

Biological target: kinases of Table 5 (Homo sapiens)
Assay: Further analysis of a plurality of inhibitors and a plurality of kinases (Table 5 inhibition results)
Type: biochemical
Parameters: scale not given here
Conditions: kinase EPHB1; inhibitor 100 uM
readout name: Inhibition level

(a) CC(C)(C)n1nc(-c2ccc(Cl)cc2)c2c(N)ncnc21
(b) O=c1c(-c2ccc(O)cc2)coc2cc(O)cc(O)c12
(c) Cn1cc(C2=C(c3cn(CCCSC(=N)N)c4ccccc34)C(=O)NC2=O)c2ccccc21
Problem: Give the order of the entries above, sorted from least to greatest Inhibition level. A ranking is expressed here by listing the labels in the requested order.
Solution: c, b, a
(c: 0, b: 1, a: 2)
